System: CAKI-1 renal
measurement-protocol: NCI-60 one-dose screen, 48 h
condition-summary: 10 µM
This is part of a sample that, as a whole, favours compounds with a hit. Of some 83,000 tested, about 20% had one in any assay. Active and inactive are the calls of the source. Rule for the calls: active = growth percent below 10; inactive = the rest.
Hi! Could you answer with just one of these? active, inactive

Some solved entries appear below for comparison.
compound	class-name
O=C1ON=[N+](c2ccc(Cc3ccc([N+]4=NOC(=O)C4CN4CCOCC4)cc3)cc2)C1CN1CCOCC1 (stereo not given)	inactive
COc1cc2cc3c(nc2cc1OC)CCN3Cc1ccc(NC(=O)c2ccc(Cl)c(C(F)(F)F)c2)cc1	inactive
c1ccc(C(NC2CC3CCC2C3)c2ccccc2)cc1 (stereo not given)	inactive
COc1ccccc1CNCCCN1C(=O)c2ccc3c4c(ccc(c24)C1=O)C(=O)N(CCCN)C3=O	inactive
Nc1ccccc1NC(=O)CCCCC(=O)Nc1ccc2c(c1)/C(=C/c1ccc[nH]1)C(=O)N2	inactive
C#Cc1ccc(-n2c(/C=C/c3cc(OC)cc(OC)c3)nc3ncccc3c2=O)cc1	inactive
CSc1nc(=O)n(Cc2ccc(F)cc2)c(=O)n1Cc1ccc(C)cc1	inactive
CC(=O)N(C)c1ccc(Nc2ccc(Nc3ccc(N(C)C(C)=O)cc3)c3c2C(=O)c2ccccc2C3=O)cc1	inactive
COc1cc(-c2cc(/C=C/C(=O)c3ccc(F)c(F)c3)[nH]n2)cc(OC)c1OC	active
CCCN(CCC)CCC(O)c1cc2c(c3ccccc13)CCCC2 (stereo not given)	inactive

Which outcome was assigned to CC(C)(C#N)Nc1ccccc1 in this test?
inactive

Short answer needed: outcome of this test for Clc1ccc(Nc2ccnc(NCCCNc3ccnc4cc(Cl)ccc34)n2)cc1 ?
active

For this compound, state the assay outcome: COc1ccc2c(c1)sc1nc(-c3ccccc3)c(-c3cccnc3)n12
inactive

Per the records of this test, what outcome belongs to CN(C)CCS(=O)(=O)CCN(C)C ?
inactive

Hi team, can someone confirm the assay call for COc1cc2cc3c(nc2cc1OC)CCN3Cc1ccc(NC(=O)Nc2cc(C(F)(F)F)cc(C(F)(F)F)c2)cc1 ?
inactive

Can you look up the reported call for N#Cc1ncc(-c2cc(F)c(F)c(F)c2)c(NC2CCCCCC2)n1 for me?
inactive

Which outcome was assigned to CN(C)CCN1C(=O)c2cccc3cc(N)cc(c23)C1=O in this test?
active

For this compound, state the assay outcome: Cn1c(N)c(N=Nc2ccc(S(=O)(=O)Nc3nccs3)cc2)c(=O)n(C)c1=O
inactive

For O=C(Cc1csc2nc(-c3ccc(Cl)cc3)cn12)N/N=C/c1ccccc1O , what call appears in the results of this test?
inactive

Any idea what this test logged for Nc1cc2c(cc1Cl)-c1ccc([N+](=O)[O-])cc1/C2=N\O ?
inactive

---

Tested on: SNB-75 CNS
measurement-protocol: NCI-60 one-dose screen, 48 h
condition-summary: 10 µM
The panel holds about 83,000 compounds, 20% with a hit somewhere; the sample as a whole holds those more often. The source made the active and inactive calls. The calls were made as follows: active = growth percent below 10; inactive = the rest.
Please answer using one outcome listed in active, inactive

compound	class-name
N=C(N)c1ccc(-c2ccc(-c3ccccc3)o2)nc1	inactive

Query: recorded result category for CN(C)CCN=c1nc2c(c(N)n1-c1ccccc1)c(=S)n(-c1ccccc1)c(=S)n2-c1ccccc1 in this test
inactive

Check the results log: what was the call for CSc1cc(SC)ncn1 ?
inactive

Give the logged outcome of this assay for the following compound: O=C(c1cccs1)c1ccccc1Cc1ccccc1
inactive

Record request — test call for CC1CN(Cc2ccccc2)C(=O)NC1=O (centres undefined)
inactive

Hi, do you know how O=C(Nc1cccc(Cl)c1)Nc1nccs1 came out in this test?
inactive

Outcome? CCN(CC)CCN1CC(=O)Nc2cc(Cl)ccc21
inactive

// return assay outcome for CCOC(=O)N1C/C(=C/c2ccc(Cl)cc2)C(=O)/C(=C/c2ccc(Cl)cc2)C1
inactive

Which outcome did this test record for the compound O=C1/C(=C\c2ccccc2)CN(C(=O)c2ccccc2)C/C1=C\c1ccccc1 ?
inactive

Given CCOC(=O)N/N=C\C(C)=N\NC(=O)OCC , state the outcome it received in this test.
inactive

Status in this test for COc1cc(-c2cc(/C=C/C(=O)c3ccc(F)c(F)c3)[nH]n2)cc(OC)c1OC ?
inactive

# outcome recorded in this test, key = Cc1cccc2c(NCCN(C)C)c3cccc(C(=O)NCCN(C)C)c3nc12
active

Could you please tell me the result logged for CN(C)c1ccc(N=C2C=CC(=O)c3ccccc32)cc1 in this assay?
inactive

Please indicate how the test categorized O=C1/C(=C/c2ccc([N+](=O)[O-])s2)Oc2ccccc21 .
active

---

Tested on: UACC-257 melanoma
measurement-protocol: NCI-60 one-dose screen, 48 h (100 = growth as untreated, 0 = no growth, -100 = all killed)
condition-summary: 10 µM
About 83,000 compounds went through this panel and 20% of them were active in at least one assay; those are over-represented in the sample as a whole.
growth below 60% gives N; growth at or above it gives Y.

// known answers, use as guide
compound	class-name
CC/C(C)=C(\C)C(=O)O	Y
O=C1/C(=C\c2ccc(F)cc2)CN(C(=O)c2ccccc2)C/C1=C\c1ccc(F)cc1	N
Cc1ccc(S(=O)(=O)OCCN(CCOS(=O)(=O)c2ccc(C)cc2)c2c[nH]c(=O)[nH]c2=O)cc1	Y

State whether the measured growth reaches 60%, counting equality as reaching it, for c1ccc(CP(Cc2ccccc2)c2ccccc2)cc1
Y

Hi, just wondering whether COc1cc(-c2cc(C(=O)N3CCN(C(=O)c4ccccc4NCc4ccco4)CC3)nc3cc(-c4ccccc4)nn23)cc(OC)c1OC shows growth of 60% or higher.
N

Hi team, for CCCCCCCC(C)NCCO (configuration not stated) , is the recorded growth at or above 60%?
Y

---

Consider the following compounds and their measured growth readings.
Test system: EKVX NSCLC
measurement-protocol: NCI-60 one-dose screen, 48 h (100 = growth as untreated, 0 = no growth, -100 = all killed)
condition-summary: 10 µM
Compounds without any hit were thinned out: in the full panel of roughly 83,000, 20% have a hit. Calls of active or inactive are those of the source. How the source made its calls: active means growth percent below 10; inactive means the rest.

Below: 3 compounds and their reported growth.
compound	growth
COc1ccc(OC)c2c1C(=O)CC2C (stereo not given)	98.7% (inactive)
CCn1cc(C(=O)O)c(=O)c2cnc(N3CCCC3)nc21	93.7% (inactive)
O=C(Cc1csc2nc(-c3ccc(Cl)cc3)cn12)N/N=C/c1ccccc1O	32.2% (inactive)

Would you kindly share the measured growth for N#CCCN(NC(=O)OCc1ccccc1)C(=O)OCc1ccccc1 ?
91.8% (inactive)

Record request: growth value, item CCOC(=O)CNC(=O)CCCCSc1ncnc2nc[nH]c12
108% (inactive)

---

molecules and their reported growth
System: DU-145 prostate
measurement-protocol: NCI-60 one-dose screen, 48 h (100 = growth as untreated, 0 = no growth, -100 = all killed)
condition-summary: 10 µM
About 83,000 compounds went through this panel and 20% of them were active in at least one assay; those are over-represented in the sample as a whole. Activity calls are given as the source filed them. Rule for the calls: active = growth percent below 10; inactive = the rest.

molecule	tested-system	growth
Cc1ccc(C)c(C(O)(c2cc(C)ccc2C)C2(O)CCCCC2)c1	DU-145 prostate	104% (inactive)
Cc1ccc(-c2n[nH]c(=O)c3noc(-c4ccc(C)cc4)c23)cc1	DU-145 prostate	25.2% (inactive)
ClCCOCCn1cnc2c(Cl)nc(Cl)nc21	DU-145 prostate	-5.51% (active)
COc1cc(Cl)cc(-c2nn(-c3cccc(NC(=O)Nc4cc(C(F)(F)F)cc(C(F)(F)F)c4)c3)cc2-c2ccncc2)c1	DU-145 prostate	13.1% (inactive)
c1ccc([C@H]2CN3CCSC3=N2)cc1	DU-145 prostate	92.1% (inactive)

What value of growth has been reported for the following molecule? COc1ccc2c(c1)C(=O)c1c-2c(=O)n(CCCN(C)C)c2cc(OC)c(OC)cc12
26.9% (inactive)

Name the recorded growth for NC(=S)N=Nc1c(O)c2ccccc2c2ccccc12 .
-8.94% (active)

Param item = COc1ccc(OC)c(/C=C/c2nc(SCc3ccccc3)n(-c3ccc(Cl)cc3)n2)c1 ; retrieve measured growth.
77.7% (inactive)

Given the entry CCOC(=O)CNC(=O)CCCCSc1ncnc2nc[nH]c12 , report its measured growth.
113% (inactive)

---

Test system: OVCAR-4 ovarian
measurement-protocol: NCI-60 one-dose screen, 48 h (100 = growth as untreated, 0 = no growth, -100 = all killed)
condition-summary: 10 µM
About 83,000 compounds went through this panel and 20% of them were active in at least one assay; those are over-represented in the sample as a whole.
readout-kind: growth (%)
Only the number, expressed in %, is required.

molecule	readout-kind	endpoint-value
O=S(=O)(Nc1ccccn1)c1ccc(N=Nc2ccc(O)c3ncccc23)cc1	growth	8.85
c1ccc(CNc2ncnc3scc(-c4cccs4)c23)nc1	growth	41.2
c1ccc2c(c1)oc1c3c(ccc12)NCCC3	growth	94.3

So what growth did COc1ccc(/C=C2/CN(CCC#N)C/C(=C\c3ccc(OC)cc3)C2=O)cc1 get with OVCAR-4 ovarian?
17.3

Kindly state the measured growth obtained for c1ccc(CSc2nnc3c4c5c(sc4nc(-c4cccnc4)n23)CCCCCC5)cc1 with OVCAR-4 ovarian.
27.3

Request body: readout growth, system OVCAR-4 ovarian, query NC1(C(=O)O)CSSC1 . Return the value.
76.8

Query for OVCAR-4 ovarian: what growth does the record show for Oc1[nH]c2ccc(Cl)cc2c1/C=c1/ccc2c(c1)N=C(c1cccs1)N=2 ?
52.3

Form entry - test system: OVCAR-4 ovarian; read-out: growth; molecule: COc1ccc(-c2ccc3cc(C(=O)Nc4ccc(O)c(C(=O)/C=C/c5cc(OC)c(OC)c(OC)c5)c4)ccc3c2)cc1
94.5

What growth appears in the records for this molecule with OVCAR-4 ovarian? Clc1cccc(-c2nc(-c3cccs3)no2)c1
65.8

Value wanted: growth (OVCAR-4 ovarian) of entry Oc1[nH]c2cc(Cl)ccc2c1/C=c1/ccc2c(c1)N=C(c1cc(F)cc(F)c1)N=2
48.8
